Target: human adenosine A1 receptor (Homo sapiens)
Construct: host or cells: CHO cells (membranes)
Sequence (P30542 whole entry): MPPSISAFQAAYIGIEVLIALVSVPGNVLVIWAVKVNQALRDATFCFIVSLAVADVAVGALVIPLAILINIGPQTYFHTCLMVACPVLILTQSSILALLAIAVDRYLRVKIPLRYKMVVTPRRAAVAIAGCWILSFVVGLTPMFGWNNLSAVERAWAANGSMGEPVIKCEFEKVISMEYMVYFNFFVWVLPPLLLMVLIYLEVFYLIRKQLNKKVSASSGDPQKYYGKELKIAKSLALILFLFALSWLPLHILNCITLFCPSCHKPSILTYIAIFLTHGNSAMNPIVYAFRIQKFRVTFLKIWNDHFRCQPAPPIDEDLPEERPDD
Assay: Adenosine A1 receptor binding test (3H-DPCPX binding)
Details: compound at 100 nmol/L; Table 2, measured by Ricerca Biosciences, LLC; read-out: Inhibitory rate for human adenosine A1 receptor binding (3H-DPCPX binding)
Description: Specifically, for example, human A1 receptor-expressing CHO cell membranes are used, and, as the labeled compound, for example, tritium-labeled DPCPX (1,3-dipropyl-8-cyclopentylxanthine) is used. The amount of non-specific binding can be determined by measuring the ^3H-DPCPX bound radioactivity in the presence of, for example, 100 μmol/L of R(−)-PIA((−)-N^6-2-phenylisopropyl adenosine).
If the reported inhibition at 0.1 µM equals or exceeds 20%, assign satisfied. If not, assign not satisfied.

- O=C(Nc1nc(-c2ccco2)c(C(=O)C2CCOCC2)s1)c1cnc2c(c1)COCC2 [(IS)]: not satisfied
- O=C(Nc1nc(-c2ccco2)c(C(=O)C2CCOCC2)s1)c1cccc2[nH]ccc12 [(IH)]: satisfied
- CCOCc1cc(C(=O)Nc2nc(-c3ccco3)c(C(=O)C3CCOCC3)s2)ccn1 [(IK)]: satisfied

Say whether CCc1cncc(C(=O)Nc2nc(-c3ccoc3)c(C(=O)C3CCOCC3)s2)c1 [(IZ)] shows inhibition at 0.1 µM of 20% or more. satisfied
